B1: KLHL13 (parent)
chain: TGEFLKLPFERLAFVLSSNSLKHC

# Variants of: B1
# assay-protocol: protein stability index of a GFP-peptide fusion (GPS, HEK-293T) (PSI 1-6); higher = more stable;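 also: lentivirally expressed fusions sorted by FACS into six bins by GFP to DsRed ratio, PSI derived from sequencing read proportions per bin multiplied by bin number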
# conditions-used: c terminus: a fixed tail appended
measurement-type: protein stability index
Form rule: numeric answer, no unit written next to it.

[
  {
    "seq": "TGEFLKLPFERPAFVLSSNSLKHC [L12P]",
    "readout-number": 1.77
  },
  {
    "seq": "TGEFLKLPFERLAFVLSSNSLCHC [K22C]",
    "readout-number": 4.71
  }
]

Request: Identify measured protein stability index associated with TGEFCKLPFERLAFVLSSNSLKHC [L5C]
Response: 2.26

Request: Identify measured protein stability index associated with TGEFLKLPLERLAFVLSSNSLKHC [F9L]
Response: 3.5

Request: Identify measured protein stability index associated with TGEFLKLPFERLAFVLSPNSLKHC [S18P]
Response: 2.64

Request: Identify measured protein stability index associated with TGEFLKLPFEALAFVLSSNSLKHC [R11A]
Response: 3.93

Request: Identify measured protein stability index associated with TGEFLKLPFECLAFVLSSNSLKHC [R11C]
Response: 2.12

Request: Identify measured protein stability index associated with TGEFLKLPFEPLAFVLSSNSLKHC [R11P]
Response: 3.17

Request: Identify measured protein stability index associated with TGEFLKLPFERQAFVLSSNSLKHC [L12Q]
Response: 2.11

Request: Identify measured protein stability index associated with TGEFTKLPFERLAFVLSSNSLKHC [L5T]
Response: 2.54

Request: Identify measured protein stability index associated with TGEFLKLPFERLAFVLSSNSLQHC [K22Q]
Response: 4.87

Request: Identify measured protein stability index associated with TGEFLKLPFESLAFVLSSNSLKHC [R11S]
Response: 3.23

Request: Identify measured protein stability index associated with TGEFLKLPMERLAFVLSSNSLKHC [F9M]
Response: 3.01

Request: Identify measured protein stability index associated with TGEYLKLPFERLAFVLSSNSLKHC [F4Y]
Response: 2.4
